For reference, the following IC50 results for ROCK2 (Homo sapiens) were taken from various sources.
observation-type: IC50

[[record]]
compound = "Cc1cccc(CN2CCN(c3ccc(-c4cn[nH]c4)cn3)C2=O)c1"
measurement_target = "ROCK2 (Homo sapiens)"
value_measured = "20.1 to 200 nM"

[[record]]
compound = "COc1cc(C(=O)NCc2c(F)ccc(OC)c2F)ccc1-c1cn[nH]c1"
measurement_target = "ROCK2 (Homo sapiens)"
value_measured = "5.35 nM"

[[record]]
compound = "COc1cc(F)cc(Cn2nnn(-c3ccc(-c4cn[nH]c4)c(OC)c3)c2=O)c1"
measurement_target = "ROCK2 (Homo sapiens)"
value_measured = "5 to 50 nM"

[[record]]
compound = "CN1CCC(C)(CNC(=O)c2cccc([C@@H](CO)NC(=O)c3ccc(-c4ccncc4)cc3)c2)CC1"
measurement_target = "ROCK2 (Homo sapiens)"
value_measured = "0.63 nM"

[[record]]
compound = "Cc1nc(N2CCOCC2)sc1C(=O)NC1CC2(C1)CC(c1n[nH]c(=O)c3ccccc13)C2 (stereo not shown)"
measurement_target = "ROCK2 (Homo sapiens)"
value_measured = "15.1 to 100 nM"

[[record]]
compound = "CCc1cc(-n2ncn(Cc3cc(F)cc(F)c3)c2=O)ccc1-c1cn[nH]c1"
measurement_target = "ROCK2 (Homo sapiens)"
value_measured = "5 to 50 nM"

[[record]]
compound = "COc1cc(N2CCC3(CCN(C(=O)c4ccc(CO)cc4)CC3)C2=O)ccc1-c1cn[nH]c1"
measurement_target = "ROCK2 (Homo sapiens)"
value_measured = "53 nM"

[[record]]
compound = "O=C(NC1CC2(C1)CC(c1n[nH]c(=O)c3ccccc13)C2)c1cnn2ccccc12 (stereo not shown)"
measurement_target = "ROCK2 (Homo sapiens)"
value_measured = "2.01 to 5 nM"

[[record]]
compound = "NC(=O)c1cccnc1Oc1ccc(CC(=O)Nc2nc3cc(-c4cnn(C(F)F)c4)ccn3n2)cc1F"
measurement_target = "ROCK2 (Homo sapiens)"
value_measured = "25 nM"

[[record]]
compound = "COc1cccc(NC2CCN(c3ccc4c(c3)OCc3n[nH]cc3-4)C2=O)c1 (racemic)"
measurement_target = "ROCK2 (Homo sapiens)"
value_measured = "< 10 nM"

[[record]]
compound = "COc1cccc(F)c1C(CO)NC(=O)N1CCc2cc(-c3cn[nH]c3)c(F)cc21 (stereo not shown)"
measurement_target = "ROCK2 (Homo sapiens)"
value_measured = "50 to 500 nM"

[[record]]
compound = "COc1cc(F)cc(Cn2nc(C)n(-c3ccc(-c4cn[nH]c4)cc3OC)c2=O)c1"
measurement_target = "ROCK2 (Homo sapiens)"
value_measured = "250 to 2000 nM"

[[record]]
compound = "COc1cc(NC(=O)[C@H](N)Cc2ccc3ccccc3c2)ccc1-c1cn[nH]c1"
measurement_target = "ROCK2 (Homo sapiens)"
value_measured = "3.25 nM"

[[record]]
compound = "Cc1cc(Nc2ccc3[nH]ncc3c2)nn1-c1cccc(NC(=O)c2cccnc2)c1"
measurement_target = "ROCK2 (Homo sapiens)"
value_measured = "< 300 nM"

[[record]]
compound = "COc1cccc(CN2CCN(c3ccc(-c4cn[nH]c4)c(C(F)(F)F)c3)C2=O)c1"
measurement_target = "ROCK2 (Homo sapiens)"
value_measured = "20.1 to 200 nM"

[[record]]
compound = "COc1cccc(C(CO)NC(=O)c2cccc(-c3ccc4[nH]nc(F)c4c3)c2)c1 (stereo not shown)"
measurement_target = "ROCK2 (Homo sapiens)"
value_measured = "16 nM"

[[record]]
compound = "NC(=O)c1cn(C2CC2)nc1O[C@H]1C[C@@]2(C[C@H](NC(=O)c3cnn4cc(OCC(F)(F)F)ccc34)C2)C1 (stereo partly shown)"
measurement_target = "ROCK2 (Homo sapiens)"
value_measured = "53.2 nM"

[[record]]
compound = "O=C1N(c2ccc(-c3cn[nH]c3)cc2)CC2(CCOCC2)N1Cc1cccc(F)c1"
measurement_target = "ROCK2 (Homo sapiens)"
value_measured = "3 to 30 nM"

[[record]]
compound = "COc1cccc(C(C(=O)NCC(C)C)N2CCN(c3ccc(-c4cn[nH]c4)cc3)C2=O)c1 (single isomer, unassigned)"
measurement_target = "ROCK2 (Homo sapiens)"
value_measured = "200 to 2000 nM"

[[record]]
compound = "Cc1nc(Nc2ccc(-c3cn[nH]c3)cc2)nc(N2CCc3cc(C(=O)N4CC(C#N)C4)n(C)c3C2)n1"
measurement_target = "ROCK2 (Homo sapiens)"
value_measured = "50 to 500 nM"

[[record]]
compound = "COc1ccc2c(c1)CC1(CCN(c3ccc(-c4cn[nH]c4)c(OC)n3)C1=O)C2 (single isomer, unassigned)"
measurement_target = "ROCK2 (Homo sapiens)"
value_measured = "< 3 nM"

[[record]]
compound = "COc1ccc(F)c(CNC(=O)c2ccc(-c3cn[nH]c3)c(OC)c2)c1"
measurement_target = "ROCK2 (Homo sapiens)"
value_measured = "2.47 nM"

[[record]]
compound = "O=C(NC1CC(F)C1)c1cc2ccc(-c3nc(Nc4ccc(-c5cn[nH]c5)cc4)c4sccc4n3)cc2[nH]1 (stereo not shown)"
measurement_target = "ROCK2 (Homo sapiens)"
value_measured = "193 nM"

[[record]]
compound = "C[C@@H](NC(=O)c1ccc(-c2cn[nH]c2)c(C#N)c1)c1ccc(F)cc1"
measurement_target = "ROCK2 (Homo sapiens)"
value_measured = "289 nM"

[[record]]
compound = "COc1cc(N2CCC3(CCN(C(=O)c4ccc(N5CCN(C)CC5)cc4Cl)CC3)C2=O)ccc1-c1cn[nH]c1"
measurement_target = "ROCK2 (Homo sapiens)"
value_measured = "0.8 nM"

[[record]]
compound = "COC(=O)N1CC(Oc2ccc3c(C(=O)NC4CC5(C4)CC(c4n[nH]c(=O)c6ccccc46)C5)cnn3c2)C1 (stereo not shown)"
measurement_target = "ROCK2 (Homo sapiens)"
value_measured = "2.01 to 5 nM"

[[record]]
compound = "COc1cc(F)cc(CN(C(=O)N2CCc3cc(-c4cn[nH]c4)ccc3C2)C2CCOCC2)c1"
measurement_target = "ROCK2 (Homo sapiens)"
value_measured = "50 to 500 nM"

[[record]]
compound = "Cc1cn(-c2ccc3c(c2)CCNC3=O)nc1Nc1ccc2[nH]ncc2c1Cl"
measurement_target = "ROCK2 (Homo sapiens)"
value_measured = "< 300 nM"

[[record]]
compound = "Cc1sc(NC(=O)Cc2ccc(Oc3ncccc3C(N)=O)c(F)c2)nc1C1CC1"
measurement_target = "ROCK2 (Homo sapiens)"
value_measured = "22 nM"

[[record]]
compound = "CCc1cc(-n2ncn(Cc3cccc(OC)c3)c2=O)ccc1-c1cn[nH]c1"
measurement_target = "ROCK2 (Homo sapiens)"
value_measured = "5 to 50 nM"

[[record]]
compound = "COc1cccc(Cn2nc(C)n(-c3ccc(-c4cn[nH]c4)cc3)c2=O)c1"
measurement_target = "ROCK2 (Homo sapiens)"
value_measured = "250 to 2000 nM"

